Hey, just so you know, these numbers are from patent US20250313546A1.

Would you mind telling me the reported % Normalised Fluorescence with gDNA of each entry?
Test system: Genomic double stranded DNA (salmon)
Assay: Fluorescence intercalator displacement (FID) assay, SYBR-safe probe
Conditions: 20 μM compound, 30° C., lower % = stronger binding
Reply with just the number (in %).

Reported Genomic double stranded DNA (salmon) % Normalised Fluorescence with gDNA for item [H]/N=C(\CCNC(=O)c1cc(NC(=O)c2cc(NC(=O)c3ccc(C=Cc4ccc(C#N)cc4)cc3)cn2C)cn1C)NCC [Ia16] was 31

Reported Genomic double stranded DNA (salmon) % Normalised Fluorescence with gDNA for item Cn1cc(NC(=O)c2ccc(/C=C/c3ccc4nonc4c3)cc2)cc1C(=O)Nc1c[nH]c(C(=O)NCCN2CCOCC2)c1 [IIIb1] was 47

Reported Genomic double stranded DNA (salmon) % Normalised Fluorescence with gDNA for item CN1CCN(CCNC(=N)CCNC(=O)c2cc(NC(=O)c3cc(NC(=O)c4ccc(/C=C/c5cnc6ccccc6c5)cc4)cn3C)cn2C)CC1 [Ia41] was 16

Reported Genomic double stranded DNA (salmon) % Normalised Fluorescence with gDNA for item CCNC(=N)CCNC(=O)c1cc(NC(=O)c2cc(NC(=O)c3ccc(/C=C/c4cccc(OC)c4)cc3)cn2C)cn1C [Ia22] was 3

* * *

Tested on: Genomic double stranded DNA (salmon)
Assay: Fluorescence intercalator displacement (FID) assay, SYBR-safe probe
Conditions: 20 μM compound, 30° C., lower % = stronger binding
Would you mind telling me the reported % Normalised Fluorescence with gDNA of each entry?
# do not omit the unit; it follows the number

Reported Genomic double stranded DNA (salmon) % Normalised Fluorescence with gDNA for item [H]/N=C(\CCNC(=O)c1cc(NC(=O)c2cc(NC(=O)c3ccc(C=Cc4ccc5nonc5c4)cc3)cn2C)cn1C)NC [Ia3] was 13%

Reported Genomic double stranded DNA (salmon) % Normalised Fluorescence with gDNA for item CN(C)c1ccc(/C=C/c2ccc(C(=O)Nc3cc(C(=O)Nc4cc(C(=O)NCCCCN5CCCC5)n(C)c4)n(C)c3)cn2)cc1 [IVa15] was 15%

Reported Genomic double stranded DNA (salmon) % Normalised Fluorescence with gDNA for item CCCC/N=C(\CCNC(=O)c1cc(NC(=O)c2cc(NC(=O)c3ccc(/C=C/c4cnc5ccccc5c4)cc3)cn2C)cn1C)NCCCC [Ia38] was 10%

Reported Genomic double stranded DNA (salmon) % Normalised Fluorescence with gDNA for item CCCC/N=C(\CCNC(=O)c1cc(NC(=O)c2cc(NC(=O)c3ccc(/C=C/c4ccc(N(C)C)cc4)nc3)cn2C)cn1C)NCCCC [Ia39] was 50%

Reported Genomic double stranded DNA (salmon) % Normalised Fluorescence with gDNA for item COCCOCCOCCNC(=O)c1cc(NC(=O)c2cc(NC(=O)c3ccc(/C=C/c4cnc5ccccc5c4)cc3)cn2C)cn1C [IVa8] was 70%

Reported Genomic double stranded DNA (salmon) % Normalised Fluorescence with gDNA for item COc1cccc(/C=C/c2ccc(C(=O)Nc3cc(C(=O)Nc4cc(C(=O)NCCC(=N)NC(C)C)n(C)c4)n(C)c3)cn2)c1 [Ia23] was 41%

Reported Genomic double stranded DNA (salmon) % Normalised Fluorescence with gDNA for item COc1ccc(/C=C/c2ccc(C(=O)Nc3cc(C(=O)Nc4cc(C(=O)NCCC(=N)NC(C)C)n(C)c4)n(C)c3)cn2)cc1 [Ia15] was 16%

Reported Genomic double stranded DNA (salmon) % Normalised Fluorescence with gDNA for item O=C(Nc1c[nH]c(C(=O)Nc2c[nH]c(C(=O)NCCN3CCOCC3)c2)c1)c1ccc(/C=C/c2ccc3nonc3c2)cc1 [IIIb6] was 84%

* * *

System: Candida glabrata (ACPF3309)
Conditions: Nakaseomyces glabratus, read-out: MIC99 Candida glabrata
Would you mind telling me the reported MIC99 of each entry?

// sample [H]/N=C(\CCNC(=O)c1cc(NC(=O)c2cc(NC(=O)c3ccc(C=Cc4ccc(N(C)C)cc4)nc3)cn2C)cn1C)NCC , its MIC99 was < 5 µg/mL

// sample Cn1cc(NC(=O)c2ccc(/C=C/c3ccc4nonc4c3)cc2)cc1C(=O)Nc1c[nH]c(C(=O)NCCC(=N)N)c1 , its MIC99 was < 5 µg/mL

// sample [H]/N=C(\CCNC(=O)c1cc(NC(=O)c2cc(NC(=O)c3ccc(C=Cc4ccc5nonc5c4)cc3)cn2C)cn1C)NCCC1CCOCC1 , its MIC99 was 25 to 50 µg/mL

// sample CC(C)NC(=N)CCNC(=O)c1cc(NC(=O)c2cc(NC(=O)c3ccc(/C=C/c4cnc5ccccc5c4)cc3)cn2C)cn1C , its MIC99 was < 5 µg/mL

// sample CCCCCCCCCCCC[N+](C)(C)CCNC(=O)c1cc(NC(=O)c2cc(NC(=O)c3ccc(/C=C/c4cnc5ccccc5c4)cc3)cn2C)cn1C , its MIC99 was 5 to 25 µg/mL

// sample Cn1cc(NC(=O)c2cc(NC(=O)c3ccc(/C=C/c4ccc5nonc5c4)cc3)c[nH]2)cc1C(=O)NCCC(=N)N , its MIC99 was < 5 µg/mL

// sample CCCCCCCCC[N+](C)(C)CCNC(=O)c1cc(NC(=O)c2cc(NC(=O)c3ccc(/C=C/c4cnc5ccccc5c4)cc3)cn2C)cn1C , its MIC99 was 5 to 25 µg/mL

// sample CN1CCN(C(=N)CCNC(=O)c2cc(NC(=O)c3cc(NC(=O)c4ccc(/C=C/c5cnc6ccccc6c5)cc4)cn3C)cn2C)CC1 , its MIC99 was 5 to 25 µg/mL

// sample N=C(N)CCNC(=O)c1cc(NC(=O)c2cc(NC(=O)c3ccc(/C=C/c4ccc5nonc5c4)cc3)c[nH]2)c[nH]1 , its MIC99 was > 50 µg/mL

// sample CCCCCCCCCC[N+](C)(C)CCNC(=O)c1cc(NC(=O)c2cc(NC(=O)c3ccc(/C=C/c4cnc5ccccc5c4)cc3)cn2C)cn1C , its MIC99 was > 50 µg/mL

// sample C/N=C(\CCNC(=O)c1cc(NC(=O)c2cc(NC(=O)c3ccc(/C=C/c4ccc(N(C)C)cc4)nc3)cn2C)cn1C)NC , its MIC99 was 5 to 25 µg/mL

* * *

Would you mind telling me the reported MIC80 of each entry?
Test system: Staphylococcus aureus (ATCC 43300)
Assay: Antibacterial MIC, broth microdilution (CLSI)
Format: cell-based
Details: Staphylococcus aureus, ATCC43300; read-out: MIC80 S. aureus

// sample CNC(=N)CCNC(=O)c1cc(NC(=O)c2cc(NC(=O)c3ccc(/C=C/c4ccc(OC)cc4)nc3)cn2C)cn1C , its MIC80 was 5 to 25 µM

// sample [H]/N=C(\CCNC(=O)c1cc(NC(=O)c2cc(NC(=O)c3ccc(C=Cc4ccc5nonc5c4)cc3)cn2C)cn1C)NC , its MIC80 was < 5 µM

// sample C/N=C(/CCNC(=O)c1cc(NC(=O)c2cc(NC(=O)c3ccc(/C=C/c4ccc(F)cc4)nc3)cn2C)cn1C)NC , its MIC80 was < 5 µM

// sample C/N=C(/CCNC(=O)c1cc(NC(=O)c2cc(NC(=O)c3ccc(/C=C/c4ccc(C(F)(F)F)cc4)cc3)cn2C)cn1C)NC , its MIC80 was < 5 µM

// sample Cn1cc(NC(=O)c2cc(NC(=O)c3ccc(/C=C/c4cnc5ccccc5c4)cc3)cn2C)cc1C(=O)NCCC(=N)N1CCCCC1 , its MIC80 was < 5 µM

// sample [H]/N=C(\CCNC(=O)c1cc(NC(=O)c2cc(NC(=O)c3ccc(C=Cc4ccc5nonc5c4)cc3)cn2C)cn1C)N1CCCCC1 , its MIC80 was < 5 µM

// sample COc1cccc(/C=C/c2ccc(C(=O)Nc3cc(C(=O)Nc4cc(C(=O)NCCC(=N)NC(C)C)n(C)c4)n(C)c3)cn2)c1 , its MIC80 was 25 to 100 µM

// sample O=C(Nc1c[nH]c(C(=O)Nc2c[nH]c(C(=O)NCCN3CCOCC3)c2)c1)c1ccc(/C=C/c2ccc3nonc3c2)cc1 , its MIC80 was 25 to 100 µM

// sample CCCC/N=C(\CCNC(=O)c1cc(NC(=O)c2cc(NC(=O)c3ccc(/C=C/c4cnc5ccccc5c4)cc3)cn2C)cn1C)NCCCC , its MIC80 was < 5 µM

// sample N=C(N)CCNC(=O)c1cc(NC(=O)c2cc(NC(=O)c3ccc(/C=C/c4ccc5nonc5c4)cc3)c[nH]2)c[nH]1 , its MIC80 was 25 to 100 µM

// sample Cn1cc(NC(=O)c2cc(NC(=O)c3ccc(/C=C/c4cnc5ccccc5c4)cc3)cn2C)cc1C(=O)NCCC1CCCCC1 , its MIC80 was 25 to 100 µM

// sample N=C(N)CCNC(=O)c1cc(NC(=O)c2cc(NC(=O)c3ccc(/C=C/c4cnc5ccccc5c4)cc3)c[nH]2)c[nH]1 , its MIC80 was < 5 µM

// sample CCCCCC[N+]1(CCNC(=O)c2cc(NC(=O)c3cc(NC(=O)c4ccc(/C=C/c5cnc6ccccc6c5)cc4)cn3C)cn2C)CCOCC1 , its MIC80 was < 5 µM

// sample C/N=C(/CCNC(=O)c1cc(NC(=O)c2cc(NC(=O)c3ccc(/C=C/c4cnc5ccccc5c4)cc3)cn2C)cn1C)NC , its MIC80 was < 5 µM

// sample CC(C)NC(=N)CCNC(=O)c1cc(NC(=O)c2cc(NC(=O)c3ccc(/C=C/c4cnc5ccccc5c4)cc3)cn2C)cn1C , its MIC80 was < 5 µM
